test: protein stability index of a GFP-peptide fusion (GPS, HEK-293T) (PSI 1-6); higher = more stable; conditions: treatment: MLN4924 1 uM, 8 h; c terminus: a fixed tail appended;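 further: 24-mer peptide tiles fused after GFP, lentivirally expressed, FACS-sorted into six equal bins by GFP/DsRed ratio, decoded by Illumina sequencing, PSI is the read-weighted mean bin number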
Form field: protein stability index (one value per entry).

{"columns": ["ITEM SEQUENCE", "protein stability index"],
 "data": [
  ["HTEDFQKEEGTVNGASWHTVAGSL [CPXM2]", 4.76],
  ["GANVKPRNSTPPSLARNPAPGVLT [ZC2HC1A]", 4.16],
  ["RFVFADRERKKLVLENLEDSCVLT [TRIB3]", 3.37],
  ["LAEYCVKTKAPAPDEGSDLFYDDY [CDC34]", 4.33],
  ["IPSEEWPNPPTLQEAGLSHTEVLF [FAF2]", 3.81],
  ["RLRASFSRKPSLKGNREDSARMSA [PLEKHN1]", 4.21],
  ["NLLGEGQHKCDECGKSFTQSSGLI [ZSCAN9]", 3.68],
  ["DTWTLTEEHGLQQERPRPEPGRLG [PXN]", 4.92],
  ["VRRECWFLPTALLCAYGFFASLRP [SLC19A2]", 2.93],
  ["ALGCVMYTMLLGRPPFETTNLKET [PLK2]", 2.79]
]}

For QKLETDAMFRLEHGEADRSTLKKA [YJU2B] the sequence record lists protein stability index as 5.03

Query LGRFNDINVPIRLECVKFASHCLM [PDS5B] yields protein stability index of 2.41

response.value for ACMMTITFLPYTFSLMVTFPDVPL [TMEM175] (field: protein stability index) = 3.26

Entry LDTVELATYCVRTFALYKNGSSEK [PTPRD] — recorded protein stability index = 2.55

According to the records, this sequence EQLIEAINNGDFEAYTKICDPGLT [CAMK2D] displays protein stability index of 4.1

---

assay: protein stability index of a GFP-peptide fusion (GPS, HEK-293T) (PSI 1-6); higher = more stable; details: treatment: MLN4924 1 uM, 8 h; c terminus: a fixed tail appended
protein stability index listing for selected sequences.

See these solved cases before continuing.
{"columns": ["ITEM SEQUENCE", "EXPERIMENTAL VALUE"],
 "data": [
  ["VGMNFLHCMAPPLLHLDLKPANIL [RIPK4]", 2.14],
  ["WGGAPKEGSIWRGAQMEKEWARAL [ZSWIM9]", 2.75],
  ["VEEFGVVSNTRLIAAATSVLKTRF [CCNC]", 2.26],
  ["SRILNEMRDQYEQMAEKNRRDAET [KRT16]", 4.78],
  ["TELRLLGRTHSACDALRTLAEARR [RSAD1]", 3.59],
  ["RWKRRRSYSREHEGRLRYPSRREP [CLK3]", 4.14]
]}

Now consider the entry below.
Just so you know, measured protein stability index for PAMVRISKPKTFQAYLDDCHRRYS [YPEL3] came out at 2.92

---

Known protein stability index of a selection of sequences
experiment: protein stability index of a GFP-peptide fusion (GPS, HEK-293T) (PSI 1-6); higher = more stable; conditions: treatment: MLN4924 1 uM, 8 h; c terminus: a fixed tail appended
Output spec: single numeric token, no unit.

Guide cases for protein stability index, answers given:
{"columns": ["ITEM SEQUENCE", "EXPERIMENTAL VALUE"],
 "data": [
  ["IKPSENHYSLLTSQPLDREATSHY [PCDHGC5]", 3.93],
  ["ELLDLSKQYDQQFPDGDDEFDSPH [STX11]", 4.9],
  ["TSKDLVTLGASSLREERGHPLHPR [C6orf223]", 4.33],
  ["VLIDLWKITKVMDVRLDREHRVAG [CLPTM1]", 2.57]
]}

Now take the following sequence into account.
Item: IRVWFQNKRCKDKKKSILMKQLQQ [ISL2] | protein stability index: 2.17

---

assay: protein stability index of a GFP-peptide fusion (GPS, HEK-293T) (PSI 1-6); higher = more stable; settings: treatment: MLN4924 1 uM, 8 h; c terminus: a fixed tail appended
Tick Condition met if protein stability index is 3 or greater. Tick Condition not met if protein stability index is less than 3.

{"columns": ["ITEM SEQUENCE", "ASSIGNED CLASS"],
 "data": [
  ["GHLEVVRYLVGEHQADLEVANRHG [FEM1A]", "Condition met"],
  ["MSRVHGMHPKETTRQLSLAVKDGL [ZMYND11]", "Condition met"],
  ["AILQNHTDFKDKIVLDVGCGSGIL [CARM1]", "Condition not met"],
  ["LGHAVLPSNARGPILSRSTSTGSA [SPRY1]", "Condition met"],
  ["ALSGVGGIRLPNGKLKCDICGIIC [IKZF1]", "Condition not met"]
]}

Inquiry: Item WEALNMMGLYDGMEHLIYGEPRKL [MAGEA10] with protein stability index of 3 or above?
Reply text: Condition not met

Inquiry: Is protein stability index for KTLKAENAGLSSTAGLLREQVAQL [JUNB] at or above 3?
Reply text: Condition met

---

protein stability index overview
assay: protein stability index of a GFP-peptide fusion (GPS, HEK-293T) (PSI 1-6); higher = more stable; settings: treatment: DMSO; c terminus: a fixed tail appended
# answer = number (no unit)

Look over these answered cases.
{"columns": ["ITEM SEQUENCE", "EXPERIMENTAL VALUE"],
 "data": [
  ["KQNKQVLGYCLLLMLAGMGLHYIA [DNAJC4]", 2.23],
  ["WYQPSFHGVDLSALRGAAVDEYFR [CARM1]", 2.71],
  ["LISKGANVNRTTANNDHTVLSLAC [ANKRD17]", 2.82],
  ["LYYLRASKAAAGKMNLYESFAQAT [INTS3]", 2.59],
  ["WAQYRQGEARFLPKDLDPSLCTHL [CHIT1]", 2.65],
  ["WNILKTIALGQMLSLCICGTAITS [SLC35F2]", 3.03]
]}

We next turn to a different sequence, shown below.
Measured protein stability index of TKFDRDGNRILDEKEQEKMRQDLE [PKD2L1] : 5.12

---

experiment: protein stability index of a GFP-peptide fusion (GPS, HEK-293T) (PSI 1-6); higher = more stable; settings: treatment: MLN4924 1 uM, 8 h; c terminus: a fixed tail appended
Decide using protein stability index: a value greater than or equal to 3 is condition met, a smaller one is condition not met.

Inquiry: Hi, just wondering whether HHGGDYKHWREWGSHAQTSQIQSI [CRYBA1] shows protein stability index of 3 or higher.
Reply text: condition met

Inquiry: Decide: is the reported value of protein stability index for FLQKSSVGITVLNLCALSVDRYRA [EDNRA] equal to or greater than 3?
Reply text: condition not met

Inquiry: Identify whether the reported protein stability index of the following sequence is 3 or greater: TKQNFFSQTPILQALQHVQASCDE [INTS3]
Reply text: condition met

Inquiry: Could you verify whether the entry MASLGPAAAGEQASGAEAEPGPAG [BTBD1] shows protein stability index of no less than 3?
Reply text: condition met

Inquiry: Answer whether protein stability index of HMVRESKIMEAESQKATRECEKSA [FAN1] is greater than or equal to 3.
Reply text: condition met

Inquiry: Is reported protein stability index greater than or equal to 3 here: FAYYKLNDVRQAARSAASYMLFDP [P3H4]
Reply text: condition not met

Inquiry: Hello, I need to know if EEAISVVMSGKMSVSKAQSIYGIP [LCOR] has measured protein stability index not below 3. Thanks!
Reply text: condition not met

Inquiry: Could you verify whether the entry ADLWYLFGDLSLSLVTVGKHLTAR [POMT2] shows protein stability index of no less than 3?
Reply text: condition not met

Inquiry: Identify whether the reported protein stability index of the following sequence is 3 or greater: EPASESVVGALPAEHQFSFMEKRN [TRAF3IP2]
Reply text: condition met

Inquiry: hey, is protein stability index for this one >= 3? CEHICVNSDDSYTCECLEGFRLAE [MATN2]
Reply text: condition met

---

assay: protein stability index of a GFP-peptide fusion (GPS, HEK-293T) (PSI 1-6); higher = more stable; conditions: treatment: DMSO; c terminus: a fixed tail appended
METRIC: protein stability index
Please reply with the number alone, leaving off any unit.

# protein stability index (sequence: VGMNFLHCMAPPLLHLDLKPANIL [RIPK4] ) is 2.73

Reported protein stability index for AFVRMKQLIEEGYVGEPLVCEVQV [GFOD1] was 2.47

Given item KAVNDETCKASHITSSVFPSASLG [FBXO34] , the value recorded as its protein stability index is 3.66

Entry SWSIQMRQHHHQSSFPGSLPQETN ; protein stability index = 3.51

Briefly, protein stability index measured for VEEFGVVSNTRLIAAATSVLKTRF [CCNC] : 2.88

Origin of values: the supplement of paper PMC10567573
